method.summary: Pharmacokinetics of bendamustine dosed to rats, composition with SBECD and cetylpyridinium chloride (Example 11)
Type: in vivo
recorded.conditions: female, Sprague-Dawley, rat, plasma, iv; i.v. 20 mg/kg; 0.25 h post injection; read-out: Concentration of bendamustine in rat plasma, Mean (SEM)
Description: Control: 6 mg/mL bendamustine hydrochloride, 10.2 mg/mL of mannitol in 0.9% NaCl; dose of 20 mg/kg […] Female Sprague-Dawley rats (250-350 g). […] Flow rate 1.5 mL/min Injection volume 20 microliters Fluorescence detection at wavelengths: excitation 327 nm, emission 420 nm Mobile phase: Buffer A: 5% acetonitrile 0.1% TFA Buffer B: 90% acetonitrile 0.1% TFA Run time: 10 min The improved pharmacokinetic profiles of bendamustine for tested composition versus the control is shown in Table 1 below.

{"smiles.str": "Cn1c(CCCC(=O)O)nc2cc(N(CCCl)CCCl)ccc21", "concentration at 0.25 h (ng/mL)": 7620}

###

Tested on: H69 cells
method.summary: Cytotoxicity of bendamustine composition comprising SBECD and LMWP, WST-1 (Example 24)
Assay type: cell-based
recorded.conditions: Homo sapiens, NCI-H69, 72 h, read-out: drug cytotoxicity (WST-1), Table 8

{"smiles.str": "Cn1c(CCCC(=O)O)nc2cc(N(CCCl)CCCl)ccc21", "uom": "µM", "IC50": 254}

###

method.summary: Pharmacokinetics of bendamustine dosed to rats, composition with SBECD and cetylpyridinium chloride (Example 11)
Assay type: in vivo
recorded.conditions: female, Sprague-Dawley, rat, plasma, iv; i.v. 20 mg/kg; 2 h post injection; read-out: Concentration of bendamustine in rat plasma, Mean (SEM)

{"smiles.str": "Cn1c(CCCC(=O)O)nc2cc(N(CCCl)CCCl)ccc21", "uom": "ng/mL", "concentration at 2 h": 54}

###

Tested on: H460 cells
method.summary: Cytotoxicity of bendamustine composition comprising SBECD and LMWP, WST-1 (Example 24)
Type: cell-based
recorded.conditions: Homo sapiens, NCI-H460, 72 h, read-out: drug cytotoxicity (WST-1), Table 8

{"smiles.str": "Cn1c(CCCC(=O)O)nc2cc(N(CCCl)CCCl)ccc21", "uom": "µM", "IC50": 601}

###

method.summary: Pharmacokinetics of bendamustine dosed to rats, composition with SBECD and cetylpyridinium chloride (Example 11)
Format: in vivo
recorded.conditions: female, Sprague-Dawley, rat, plasma, iv; i.v. 20 mg/kg; 0.08 h post injection; read-out: Concentration of bendamustine in rat plasma, Mean (SEM)
parameter.measured: concentration at 0.08 h (ng/mL)

{"compound": "Cn1c(CCCC(=O)O)nc2cc(N(CCCl)CCCl)ccc21 [BM]", "numeric.result": 12300}

###

method.summary: Pharmacokinetics of bendamustine dosed to rats, composition with SBECD and protamine sulphate (Example 13)
Type: in vivo
recorded.conditions: female, Sprague-Dawley, rat, plasma, iv; i.v. 10 mg/kg; 0.5 h post injection; read-out: Concentration of bendamustine in rat plasma, Mean (SEM)

{"compound": "Cn1c(CCCC(=O)O)nc2cc(N(CCCl)CCCl)ccc21 [BM]", "concentration at 0.5 h": "520 ng/mL"}

###

method.summary: Pharmacokinetics of bendamustine dosed to rats, composition with SBECD and protamine sulphate (Example 13)
Assay type: in vivo
recorded.conditions: female, Sprague-Dawley, rat, plasma, iv; i.v. 10 mg/kg; 2 h post injection; read-out: Concentration of bendamustine in rat plasma, Mean (SEM)

{"smiles.str": "Cn1c(CCCC(=O)O)nc2cc(N(CCCl)CCCl)ccc21", "uom": "ng/mL", "concentration at 2 h": 2}

###

method.summary: Pharmacokinetics of bendamustine dosed to rats, composition with SBECD and LMWP (Example 25)
Assay type: in vivo, Female Sprague-Dawley rats
recorded.conditions: female, Sprague-Dawley, rat, plasma, iv; i.v. 10 mg/kg; 3 h post injection; read-out: Concentration of bendamustine in rat plasma, Mean (SEM)

{"smiles.str": "Cn1c(CCCC(=O)O)nc2cc(N(CCCl)CCCl)ccc21", "concentration at 3 h [µg/mL]": 0}

###

method.summary: Pharmacokinetics of bendamustine dosed to rats, composition with SBECD and cetylpyridinium chloride (Example 11)
Format: in vivo
recorded.conditions: female, Sprague-Dawley, rat, plasma, iv; i.v. 20 mg/kg; 1.5 h post injection; read-out: Concentration of bendamustine in rat plasma, Mean (SEM)

{"smiles.str": "Cn1c(CCCC(=O)O)nc2cc(N(CCCl)CCCl)ccc21", "concentration at 1.5 h (ng/mL)": 133}

###

method.summary: Pharmacokinetics of bendamustine dosed to rats, composition with SBECD and PI2080 (Example 12)
Assay type: in vivo, Female Sprague-Dawley rats
recorded.conditions: female, Sprague-Dawley, rat, plasma, iv; i.v. 10 mg/kg; 1.5 h post injection; read-out: Concentration of bendamustine in rat plasma, Mean (SEM)

{"molecule": "Cn1c(CCCC(=O)O)nc2cc(N(CCCl)CCCl)ccc21 [BM]", "concentration at 1.5 h (ng/mL)": 8}

###

method.summary: Pharmacokinetics of bendamustine dosed to rats, composition with SBECD and protamine sulphate (Example 13)
Assay type: in vivo
recorded.conditions: female, Sprague-Dawley, rat, plasma, iv; i.v. 10 mg/kg; 3 h post injection; read-out: Concentration of bendamustine in rat plasma, Mean (SEM)

{"smiles.str": "Cn1c(CCCC(=O)O)nc2cc(N(CCCl)CCCl)ccc21", "concentration at 3 h": "0 ng/mL"}

###

method.summary: Pharmacokinetics of bendamustine dosed to rats, composition with SBECD and cetylpyridinium chloride (Example 11)
Type: in vivo
recorded.conditions: female, Sprague-Dawley, rat, plasma, iv; i.v. 20 mg/kg; 3 h post injection; read-out: Concentration of bendamustine in rat plasma, Mean (SEM)

{"smiles.str": "Cn1c(CCCC(=O)O)nc2cc(N(CCCl)CCCl)ccc21", "concentration at 3 h": "9 ng/mL"}

###

method.summary: Pharmacokinetics of bendamustine dosed to rats, composition with SBECD and protamine sulphate (Example 13)
Format: in vivo
recorded.conditions: female, Sprague-Dawley, rat, plasma, iv; i.v. 10 mg/kg; 1.5 h post injection; read-out: Concentration of bendamustine in rat plasma, Mean (SEM)

{"smiles.str": "Cn1c(CCCC(=O)O)nc2cc(N(CCCl)CCCl)ccc21", "uom": "ng/mL", "concentration at 1.5 h": 8}

###

method.summary: Pharmacokinetics of bendamustine dosed to rats, composition with SBECD and cetylpyridinium chloride (Example 11)
Format: in vivo
recorded.conditions: female, Sprague-Dawley, rat, plasma, iv; i.v. 20 mg/kg; 0.5 h post injection; read-out: Concentration of bendamustine in rat plasma, Mean (SEM)

{"smiles.str": "Cn1c(CCCC(=O)O)nc2cc(N(CCCl)CCCl)ccc21", "concentration at 0.5 h": "3050 ng/mL"}

###

method.summary: Bendamustine chemical stability in plasma, HPLC (Example 31)
Type: in vitro ADME
recorded.conditions: heparinized human plasma, 37° C., initially 0.015 mg/mL bendamustine; read-out: T½ in plasma (decomposition half time)
parameter.measured: half-life at 0.015 mg/mL (h)

{"smiles.str": "Cn1c(CCCC(=O)O)nc2cc(N(CCCl)CCCl)ccc21", "numeric.result": 2.05}

###

method.summary: Pharmacokinetics of bendamustine dosed to rats, composition with SBECD and protamine sulphate (Example 13)
Format: in vivo
recorded.conditions: female, Sprague-Dawley, rat, plasma, iv; i.v. 10 mg/kg; 1 h post injection; read-out: Concentration of bendamustine in rat plasma, Mean (SEM)

{"compound": "Cn1c(CCCC(=O)O)nc2cc(N(CCCl)CCCl)ccc21 [BM]", "concentration at 1 h": "48 ng/mL"}

Where do these numbers come from? They come from patent US8703964B2.
